# ASSAY_NAME: Solubility determination in oil (Table 10)
# EXPERIMENTAL_CONDITIONS: 25 °C, oil or lipid, thermodynamic from solid, Approximate Solubility in Excipient: Sesame oil, Heating Temp. 60 °C, Obs. Temp. 25 °C
RESULT_TYPE: solubility at 24 h

C=C1CC[C@@]2(O)C3Cc4ccc(OC(=O)OCCCCCCCCCCCCC)c5c4[C@@]2(CCN3CC2CC2)[C@H]1O5	253 to 399 mg/mL
C=C1CC[C@@]2(O)C3Cc4ccc(OC(=O)CCCCCCC/C=C/CCCCCCCC)c5c4[C@@]2(CCN3CC2CC2)[C@H]1O5	> 396 mg/mL
C=C1CC[C@@]2(O)C3Cc4ccc(OC(=O)OCCCCCCCCCCCCCC)c5c4[C@@]2(CCN3CC2CC2)[C@H]1O5	> 414 mg/mL
CCCCCCCCCCCCCC(=O)Oc1ccc2c3c1O[C@H]1C(=O)CC[C@@]4(O)C(C2)N(CC2CC2)CC[C@]314	> 417 mg/mL
CCCCCCCCCCCCCCCCOC(=O)OCOc1ccc2c3c1O[C@H]1C(=O)CC[C@@]4(O)C(C2)N(CC2CC2)CC[C@]314	> 405 mg/mL
CCCCCCCCCCCCCCOC(=O)OCOc1ccc2c3c1O[C@H]1C(=O)CC[C@@]4(O)C(C2)N(CC2CC2)CC[C@]314	> 399 mg/mL
C=C1CC[C@@]2(O)C3Cc4ccc(OC(=O)OCCCCCCCCCCCCCCCCCCCC)c5c4[C@@]2(CCN3CC2CC2)[C@H]1O5	< 50.6 mg/mL
CCCCCCCCCCCC(=O)OCOc1ccc2c3c1O[C@H]1C(=O)CC[C@@]4(O)C(C2)N(CC2CC2)CC[C@]314	> 405 mg/mL
CCCCCCCCCCCCCCCC(=O)Oc1ccc2c3c1O[C@H]1C(=O)CC[C@@]4(O)C(C2)N(CC2CC2)CC[C@]314	< 50 mg/mL
C=C1CC[C@@]2(O)C3Cc4ccc(OC(=O)CCCCCCCCCCC/C=C\CCCCCCCC)c5c4[C@@]2(CCN3CC2CC2)[C@H]1O5	91 to 121 mg/mL

Lab note: C=C1CC[C@@]2(O)C3Cc4ccc(OC(=O)OCCCCCCCC)c5c4[C@@]2(CCN3CC2CC2)[C@H]1O5 gave solubility at 24 h of > 487 mg/mL

Lab note: CCCCCCCCCCCCOC(=O)Oc1ccc2c3c1O[C@H]1C(=O)CC[C@@]4(O)C(C2)N(CC2CC2)CC[C@]314 gave solubility at 24 h of < 50 mg/mL

Lab note: C=C1CC[C@@]2(O)C3Cc4ccc(OC(=O)OCCCCCCCCCC)c5c4[C@@]2(CCN3CC2CC2)[C@H]1O5 gave solubility at 24 h of > 402 mg/mL

* * *

# ASSAY_NAME: Dog pharmacokinetic studies, deep intramuscular administration
# Type: in vivo, Beagle dogs
# EXPERIMENTAL_CONDITIONS: Beagle, dog, plasma, im, 48 mg/kg, IM 48 mg/kg (deep), Cottonseed + 1% Benzyl Alcohol; read-out: AUC0-inf (ng · h/mL) prodrug
# Method: The purpose of this study is to determine the pharmacokinetics of test compounds in plasma, following deep intramuscular administration to Beagle dogs (n=3, unless otherwise specified). The dose formulation (concentration—400 mg base equivalents/ml in sesame oil+1% benzyl alcohol, unless otherwise specified) was administered via deep intramuscularly (unless otherwise specified). […] The dose volume will be determined by the animals' body weight collected on the morning of dosing day. […]
RESULT_TYPE: AUC(0-inf) (ng·h/mL)
Field format: number, assumed ng·h/mL, no unit text.

Lab note: C=C1CC[C@@]2(O)C3Cc4ccc(OCOC(=O)OCCCCCCCCCCCC)c5c4[C@@]2(CCN3CC2CC2)[C@H]1O5 [Compound 24] gave AUC(0-inf) of 613

Attribution: patent US20190308988A1
